# System: cholesterol biosynthesis in HepG2 cells
# protocol: HepG2 cell culture model - 14C-acetate incorporation assay (cholesterol synthesis)
# Type: cell-based
# study conditions: Homo sapiens, 3-4 hours incubation, 2-14C-acetate incorporation into digitonin-precipitable sterols, vs. vehicle controls, read-out: Sterol Biosynthesis % Inhibition 10µM
# Protocol: HepG2 Cell Culture Model - 14C-Acetate Incorporation Assay After 16 hours in LDS containing media, test compounds were added in dimethylsulfoxide vehicle (0.5% v/v final conc.) for an incubation period of 3-4 hours. Cholesterol synthesis was then directly determined by 2-14C-acetate (1.8 mCi/mmol, 0.5 µCi/ml) incorporation for 30 to 60 minutes (previously shown to be time-linear) into total digitonin-precipitable sterols. […]
readout label: inhibition at 10 µM (%)

> print(dat)
                                   molecule                      experimental.target        readout.label  experimental.value
1  CC(C)=CCC/C(C)=C/CC/C(C)=C/CCCOc1cccc(CO)c1 [Example 22]  cholesterol biosynthesis in HepG2 cells  inhibition at 10 µM                  73
2  CC(C)=CCC/C(C)=C/CC/C(C)=C/CCC(C)(C)Oc1ccc(O)cc1 [Example 39, hydrate]  cholesterol biosynthesis in HepG2 cells  inhibition at 10 µM                  37
3  CC(C)=CCCC(C)=CCCC(C)=CCCCOc1c(C)cc(O)cc1C [Example 13]  cholesterol biosynthesis in HepG2 cells  inhibition at 10 µM                  70
4  CC(C)=CCC/C(C)=C/CC/C(C)=C/COc1ccc(O)c(C)c1C [Example 9]  cholesterol biosynthesis in HepG2 cells  inhibition at 10 µM                  36
5  CC(C)=CCC/C(C)=C/CC/C(C)=C/CCCOc1ccc(S(N)(=O)=O)cc1 [Example 28]  cholesterol biosynthesis in HepG2 cells  inhibition at 10 µM                  58

----------
# Test system: cholesterol biosynthesis in HepG2 cells
# protocol: HepG2 cell culture model - 14C-acetate incorporation assay (cholesterol synthesis)
# Format: cell-based
# study conditions: Homo sapiens, 3-4 hours incubation, 2-14C-acetate incorporation into digitonin-precipitable sterols, vs. vehicle controls, read-out: Sterol Biosynthesis % Inhibition 10µM
# Description: HepG2 Cell Culture Model - 14C-Acetate Incorporation Assay After 16 hours in LDS containing media, test compounds were added in dimethylsulfoxide vehicle (0.5% v/v final conc.) for an incubation period of 3-4 hours. Cholesterol synthesis was then directly determined by 2-14C-acetate (1.8 mCi/mmol, 0.5 µCi/ml) incorporation for 30 to 60 minutes (previously shown to be time-linear) into total digitonin-precipitable sterols. […]
Outcome: Criterion met for inhibition at 10 µM of at least 50%; Criterion not met for anything lower.

> print(dat)
                                    molecule  qualitative.label
 1  CC(C)=CCC/C(C)=C/CC/C(C)=C/CCCOc1c(C)cc(O)cc1C      Criterion met
 2  CC(C)=CCC/C(C)=C/CC/C(C)=C/CCC[S+]([O-])c1ccc(O)cc1 (stereo not drawn)  Criterion not met
 3  CC(C)=CCC/C(C)=C/CC/C(C)=C/CCCOc1c(C)cc(O)c(C)c1C  Criterion not met
 4  CC(C)=CCC/C(C)=C/CC/C(C)=C/CCCOc1ccc(C(N)=O)cc1  Criterion not met
 5  CC(C)=CCC/C(C)=C/CC/C(C)=C/CCCOc1c(F)c(F)c(O)c(F)c1F      Criterion met
 6  CC(C)=CCC/C(C)=C/CC/C(C)=C/CCCOc1ccc(N)cc1      Criterion met
 7  CC(=O)c1cc(O)ccc1OCCC/C=C(\C)CC/C=C(\C)CCC=C(C)C      Criterion met
 8  CC(C)=CCC/C(C)=C/CC/C(C)=C/CCCNc1ccc(O)cc1  Criterion not met
 9  CC(C)=CCC/C(C)=C/CC/C(C)=C/CCOc1ccc(O)c(C)c1C      Criterion met
10  CC(C)=CCC/C(C)=C/CC/C(C)=C/CCCS(=O)(=O)c1ccc(O)cc1  Criterion not met
11  COC(=O)Nc1cc(C)c(OCCC/C=C(\C)CC/C=C(\C)CCC=C(C)C)c(C)c1  Criterion not met
12  CC(C)=CCC/C(C)=C/CC/C(C)=C/CCCOc1c(C)cc(OC(N)=O)cc1C      Criterion met
13  CC(C)=CCC/C(C)=C/CC/C(C)=C/CCCOc1ccc(NS(C)(=O)=O)cc1      Criterion met
14  CC(C)=CCC/C(C)=C/CC/C(C)=C/CCCN(C(=O)OC(C)(C)C)c1ccc(O)cc1      Criterion met
15  CC(C)=CCC/C(C)=C/CC/C(C)=C/CCCSc1ccc(O)cc1      Criterion met
16  CC(C)=CCC/C(C)=C/CC/C(C)=C/CCCOc1ccc(O)cc1      Criterion met
